// data source = patent US8754132B2

Can you tell me 5-HT2C % Max ± SEM for the items I'm about to list?
Molecular target: human 5-HT(2C) (INI) receptor (Homo sapiens, UniProt P28335)
Construct: expressed in transfected cells
Sequence (P28335 33-458): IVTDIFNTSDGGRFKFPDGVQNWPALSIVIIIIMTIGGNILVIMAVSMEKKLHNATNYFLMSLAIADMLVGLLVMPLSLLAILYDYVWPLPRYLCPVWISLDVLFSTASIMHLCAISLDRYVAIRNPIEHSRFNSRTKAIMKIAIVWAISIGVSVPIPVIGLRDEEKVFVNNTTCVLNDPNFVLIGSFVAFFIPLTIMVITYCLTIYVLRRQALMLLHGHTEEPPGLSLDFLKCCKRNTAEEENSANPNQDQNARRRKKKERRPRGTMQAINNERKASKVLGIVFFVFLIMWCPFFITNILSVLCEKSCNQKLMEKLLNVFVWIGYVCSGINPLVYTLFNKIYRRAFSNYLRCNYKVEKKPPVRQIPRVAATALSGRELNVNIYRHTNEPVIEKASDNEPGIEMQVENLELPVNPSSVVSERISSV
Experiment: Calcium flux assay, stably transfected HEK-293 cells, 5-HT2C
Type: cell-based
Settings: Table 2, second section; percent of maximal activation by 5-HT
Counter-ions that a name gives are not always drawn.

The examples below pair each entry with its known result.
| compound | observed-result |
| --- | --- |
| C[C@H]1CNCCc2ccc(Cl)cc21 [2 (Lorcaserin), Lorcaserin, reference compound] | 94% ± |
| NCC1CC1c1cc(O)ccc1OCC1CC1 (single isomer, unassigned; (-)) [(−)-18] | 51% ± |
| NC[C@H]1C[C@@H]1c1cc(F)ccc1OCC1CC1 [(+)-12, Hydrochloride] | 71% ± |

Ask | # get_value(readout='5-HT2C % Max ± SEM', item= NC[C@H]1C[C@@H]1c1cc(O)ccc1OCC1CC1 [(+)-18, Hydrochloride] )
Reply | 70% ±

====

Molecular target: 5-HT(2B) receptor (Homo sapiens, UniProt P41595)
Sequence (P41595 whole entry): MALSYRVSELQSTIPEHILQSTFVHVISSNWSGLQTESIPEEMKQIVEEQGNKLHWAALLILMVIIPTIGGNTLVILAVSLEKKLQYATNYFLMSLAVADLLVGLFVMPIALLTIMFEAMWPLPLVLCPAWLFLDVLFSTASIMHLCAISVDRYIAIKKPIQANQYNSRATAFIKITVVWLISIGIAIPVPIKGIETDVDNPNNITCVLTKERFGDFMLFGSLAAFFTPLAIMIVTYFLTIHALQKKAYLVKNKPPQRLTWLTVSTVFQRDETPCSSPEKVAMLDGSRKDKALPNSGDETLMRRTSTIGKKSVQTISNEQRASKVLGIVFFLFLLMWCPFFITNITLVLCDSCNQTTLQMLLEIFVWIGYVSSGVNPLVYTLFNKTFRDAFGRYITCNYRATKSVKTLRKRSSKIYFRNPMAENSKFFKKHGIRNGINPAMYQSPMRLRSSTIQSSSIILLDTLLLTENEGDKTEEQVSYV
Test: Calcium flux assay, stably transfected HEK-293 cells, 5-HT2B
Conditions: Table 2, second section; NA: Emax ≦ 12%; read-out: 5-HT2B EC50 ± SEM
Counter-ions that a name gives are not always drawn.
test-readout: EC50 (nM)
Give bare numbers, in nM.

Ask | Record request: EC50 value, item NCC1CC1c1cc(F)ccc1OCC1CC1 (stereo not drawn) [(+)-12, Hydrochloride]
Reply | 289
